system-name: Luciferin 4-monooxygenase (Photinus pyralis) (UniProt P08659)
Sequence (P08659 whole entry, looked up): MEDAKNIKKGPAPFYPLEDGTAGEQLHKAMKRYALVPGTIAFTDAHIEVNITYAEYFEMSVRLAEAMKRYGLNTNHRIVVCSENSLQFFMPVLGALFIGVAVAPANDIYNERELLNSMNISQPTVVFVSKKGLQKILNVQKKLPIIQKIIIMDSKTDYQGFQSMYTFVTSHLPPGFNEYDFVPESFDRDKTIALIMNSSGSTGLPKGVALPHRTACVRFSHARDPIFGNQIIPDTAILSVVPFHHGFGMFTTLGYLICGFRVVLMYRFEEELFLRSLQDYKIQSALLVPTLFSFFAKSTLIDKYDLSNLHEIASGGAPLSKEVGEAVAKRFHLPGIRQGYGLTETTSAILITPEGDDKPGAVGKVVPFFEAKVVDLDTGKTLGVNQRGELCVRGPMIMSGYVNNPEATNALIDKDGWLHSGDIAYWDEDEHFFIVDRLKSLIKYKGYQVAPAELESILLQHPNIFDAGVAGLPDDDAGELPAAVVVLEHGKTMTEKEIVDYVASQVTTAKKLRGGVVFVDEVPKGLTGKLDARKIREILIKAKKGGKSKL
measurement-description: Biochemical firefly luciferase enzyme assay for NPC (AID 624030); also: nearly all actives have a fitted effect of over 70% in size
condition-notes: purified P. pyralis luciferase, luminescence, 5 min; series mostly up to 58.6 µM
Inconclusive results are not listed. The source made the active and inactive calls. Calls follow the shape of the dose curve; as a rule, active = well fitted inhibition curve with a large enough effect; inconclusive = small, poorly fitted or top-dose-only effect; inactive = flat fitted curve, though single readings scatter. Where a SMILES comes first, the peptide text is derived from it. Bridges are numbered along the chain shown (N, C = ends). [ ]: non-standard residue; d: D form. Orn = NCCC[C@H](N)C(=O)O; Mpa = O=C(O)CCS
Outcome codes: true for active, false for inactive

{"columns": ["compound", "assigned-category"],
 "data": [
  ["NC(=O)C[C@@H](N)C(=O)O", "false"],
  ["COC1C(OC(=O)/C=C/C=C/C=C/C=C/C(=O)O)CCC2(CO2)C1C1(C)OC1CC=C(C)C (configuration not stated)", "false"],
  ["Cc1cc(Nc2ccccc2C(=O)O)ccc1Cl", "true"],
  ["O=S(O)CNc1ccc(S(=O)(=O)c2ccc(NCS(=O)O)cc2)cc1", "false"],
  ["C=CCNC1=C2C[C@@H](C)C[C@H](OC)[C@H](O)[C@@H](C)/C=C(\\C)[C@H](OC(N)=O)[C@@H](OC)/C=C\\C=C(/C)C(=O)NC(=CC1=O)C2=O", "false"],
  ["CC(=O)OC[C@H]1O[C@@H](O[C@H]2[C@H](O)[C@@H](OC(=O)c3ccccc3C(=O)O)[C@H](O)O[C@@H]2COC(C)=O)[C@H](O)[C@@H](OC(=O)c2ccccc2C(=O)O)[C@@H]1O", "false"],
  ["C=Cc1ccccc1", "false"],
  ["CN[C@@H]1CCc2[nH]c3ccc(C(N)=O)cc3c2C1", "false"],
  ["O=C1C(c2[nH]c3ccc(S(=O)(=O)O)cc3c2O)=Nc2ccc(S(=O)(=O)O)cc21", "false"],
  ["Cc1ccc(/C(=C\\CN2CCCC2)c2cccc(/C=C/C(=O)O)n2)cc1", "false"],
  ["CCN(CC)c1ccc(N=Nc2ccc(S(=O)(=O)N(C)C)cc2)c(S(=O)(=O)NCC[n+]2ccccc2)c1", "false"],
  ["CCCCCCCCCCCCCCCCCC(=O)OCCO", "false"],
  ["O=P(O)(O)C(O)(Cc1cnc2ccccn12)P(=O)(O)O", "false"],
  ["CN(C(=O)CO)c1c(I)c(C(=O)NCC(O)CO)c(I)c(C(=O)NCC(O)CO)c1I (configuration not stated)", "false"],
  ["CCCCC(=O)O", "false"],
  ["c1ccc2c(CCC3CCNCC3)c[nH]c2c1", "false"],
  ["CC1(S(=O)(=O)O)CC(=O)c2ccccc2C1=O (configuration not stated)", "false"],
  ["CN1CCN(CCCN2c3ccccc3Sc3ccccc32)CC1", "false"],
  ["COc1ccc(C2NC(=S)N3C(c4ccc(OC)c(OC)c4)NC(=S)N23)cc1OC (configuration not stated)", "false"],
  ["CCOc1ccc(N=C(C)Nc2ccc(OCC)cc2)cc1", "false"],
  ["Cn1nnnc1SCC1=C(C(=O)O)N2C(=O)[C@@H](NC(=O)[C@H](OC=O)c3ccccc3)[C@H]2SC1", "false"],
  ["CCCCCCCCCC(=O)O", "false"],
  ["CS(=O)(=O)Nc1cc2occ(NC=O)c(=O)c2cc1Oc1ccccc1", "false"],
  ["CN=C(NC)NCc1ccccc1", "false"],
  ["CCOc1ccc(C[C@H]2NC(=O)CCSSC[C@@H](C(=O)N3CCC[C@H]3C(=O)N[C@@H](CCCN)C(=O)NCC(N)=O)NC(=O)[C@H](CC(N)=O)NC(=O)[C@H]([C@@H](C)O)NC(=O)[C@H]([C@@H](C)CC)NC2=O)cc1 ([Mpa][dY](Et)ITNCP[Orn]G-NH2; disulfide 1-6)", "false"],
  ["CN[C@H]1CC[C@@H](c2ccc(Cl)c(Cl)c2)c2ccccc21", "false"],
  ["Nc1c(CC(=O)O)cccc1C(=O)c1ccccc1", "false"],
  ["CCN(CC)CCOC(=O)c1ccc(N)cc1Cl", "false"],
  ["CN1CCN(C2=Nc3ccccc3Cc3ccccc32)CC1", "false"],
  ["CCCCCCCCCCCCCCCC(=O)OCCC1CCN(CCCN2c3ccccc3Sc3ccc(S(=O)(=O)N(C)C)cc32)CC1", "false"],
  ["O=[N+]([O-])c1ccc(Oc2ccc(N=C=S)cc2)cc1", "false"],
  ["CN(C)Cc1ccccc1", "false"],
  ["COc1cc2[nH]c(C)c(CCN3CCN(c4ccccc4)CC3)c2cc1OC", "false"],
  ["COc1ccc(C(=O)Nc2ccccc2CCC2CCCCN2C)cc1 (configuration not stated)", "false"],
  ["CN1CC(O)c2cc(N=NC(N)=O)c(O)cc21 (configuration not stated)", "false"],
  ["CCC(=O)O", "false"],
  ["CN(C)CCOc1ccccc1Cc1ccccc1 (tested in a mixture with another compound)", "false"],
  ["CC(=O)[C@@]1(O)CC[C@H]2[C@@H]3C=C(Cl)C4=CC(=O)CC[C@]4(C)[C@H]3CC[C@@]21C", "false"],
  ["Cc1c(O)cc2c(c1C)O[C@](C)(CCC[C@H](C)CCC[C@H](C)CCCC(C)C)CC2", "false"],
  ["CCCCCC(O)/C=C/C=O (configuration not stated)", "false"],
  ["COc1cc2c(c(OC)c1OC)-c1c(cc3c(c1OC)OCO3)C[C@@H](C)[C@](C)(O)C2", "false"],
  ["CCCOc1ccc2nc(NC(=O)OC)sc2c1", "true"]
]}
